meta.source: patent US20150132747A1

Tested on: human spinal cord astrocytes
Experiment: H2O2-induced Ca++ mobilization in human spinal cord astrocytes (Calcium4 dye)
Assay type: cell-based
Conditions: Astrocyte, 24 hr MMF, 50 mM H2O2, FIG. 7C, read-out: EC50, protection against H2O2-induced Ca++ mobilization (non-linear regression)
Counter-ions that a name gives are not always drawn.
parameter: EC50 (µM)
Note: unit µM is implicit; provide only the numeric part.

Entry COC(=O)/C=C/C(=O)O [MMF, monomethyl fumarate] : reported EC50 = ?
5.4
